MEASURED_TARGET: MRP1 (Homo sapiens, UniProt P33527)
Sequence (P33527 whole entry): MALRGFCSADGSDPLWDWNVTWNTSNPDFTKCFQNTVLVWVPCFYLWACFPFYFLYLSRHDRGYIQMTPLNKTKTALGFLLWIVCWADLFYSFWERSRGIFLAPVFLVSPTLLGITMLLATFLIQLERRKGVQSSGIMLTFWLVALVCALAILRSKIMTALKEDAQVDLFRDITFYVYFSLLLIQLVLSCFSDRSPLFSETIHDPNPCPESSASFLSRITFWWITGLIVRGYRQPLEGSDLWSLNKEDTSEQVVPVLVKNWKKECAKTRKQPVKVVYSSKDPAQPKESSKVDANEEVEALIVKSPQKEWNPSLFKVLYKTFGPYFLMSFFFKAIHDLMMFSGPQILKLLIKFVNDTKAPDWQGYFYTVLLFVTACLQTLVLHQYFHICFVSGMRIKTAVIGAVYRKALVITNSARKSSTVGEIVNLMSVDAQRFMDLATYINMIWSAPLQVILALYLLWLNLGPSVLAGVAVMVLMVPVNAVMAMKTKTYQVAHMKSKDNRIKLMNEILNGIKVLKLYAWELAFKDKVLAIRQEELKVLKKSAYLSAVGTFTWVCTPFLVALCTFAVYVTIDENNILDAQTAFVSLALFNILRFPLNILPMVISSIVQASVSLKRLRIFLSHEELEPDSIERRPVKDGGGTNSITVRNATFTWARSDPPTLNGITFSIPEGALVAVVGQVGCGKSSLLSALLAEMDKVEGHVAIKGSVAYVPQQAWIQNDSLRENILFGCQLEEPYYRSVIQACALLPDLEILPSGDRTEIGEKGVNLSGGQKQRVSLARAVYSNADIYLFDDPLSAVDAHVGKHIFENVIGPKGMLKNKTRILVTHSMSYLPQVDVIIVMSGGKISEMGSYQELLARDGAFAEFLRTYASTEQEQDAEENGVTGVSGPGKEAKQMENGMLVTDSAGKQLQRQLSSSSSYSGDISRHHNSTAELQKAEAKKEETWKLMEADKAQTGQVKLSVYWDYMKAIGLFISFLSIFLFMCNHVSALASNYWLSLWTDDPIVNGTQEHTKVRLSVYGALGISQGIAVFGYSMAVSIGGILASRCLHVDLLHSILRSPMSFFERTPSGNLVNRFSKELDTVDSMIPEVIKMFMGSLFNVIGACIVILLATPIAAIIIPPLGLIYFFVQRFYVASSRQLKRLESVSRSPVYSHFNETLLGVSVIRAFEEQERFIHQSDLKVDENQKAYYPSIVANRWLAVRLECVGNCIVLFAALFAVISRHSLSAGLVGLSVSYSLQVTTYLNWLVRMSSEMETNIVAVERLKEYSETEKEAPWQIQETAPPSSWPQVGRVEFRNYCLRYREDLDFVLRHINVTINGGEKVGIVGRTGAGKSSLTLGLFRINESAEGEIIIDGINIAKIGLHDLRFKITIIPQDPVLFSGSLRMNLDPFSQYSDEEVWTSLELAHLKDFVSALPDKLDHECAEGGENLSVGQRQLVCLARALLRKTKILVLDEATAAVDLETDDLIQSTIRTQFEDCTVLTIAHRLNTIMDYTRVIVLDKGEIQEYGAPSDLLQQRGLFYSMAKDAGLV
TEST_NAME: Reversal of MRP1-mediated DOX resistance in 2008/MRP1 cells (cell proliferation assay)
EXPERIMENTAL_SETUP: (IC50 towards L929 or Raw264.7)/(EC50 for reversing drug resistance)
What DOX resistance of 2008/MRP1 Therapeutic index was measured for each of the following?

Input "O=c1cc(-c2ccccc2)oc2cc(OCCCCc3cn(CCOCCOc4ccc5c(=O)cc(-c6ccccc6)oc5c4)nn3)ccc12" . Output DOX resistance of 2008/MRP1 Therapeutic index: >877.2

Value of DOX resistance of 2008/MRP1 Therapeutic index reported for the molecule "O=c1cc(-c2ccccc2)oc2cc(OCCCCc3cn(CCOCCOCCOc4ccc5c(=O)cc(-c6ccccc6)oc5c4)nn3)ccc12" is >740.7

Form: molecule = "O=c1cc(-c2ccccc2)oc2cc(OCCN(Cc3ccccc3)Cc3cn(CCOc4ccc5c(=O)cc(-c6ccccc6)oc5c4)nn3)ccc12" ; DOX resistance of 2008/MRP1 Therapeutic index = >169.5

# DOX resistance of 2008/MRP1 Therapeutic index of "COCOc1cc(O)c2c(=O)cc(-c3ccc(OCCCc4cn(CCOCCOc5ccc(-c6cc(=O)c7ccccc7o6)cc5)nn4)cc3)oc2c1" = >909.1

Just so you know, measured DOX resistance of 2008/MRP1 Therapeutic index for "Cc1ccc2oc(-c3ccc(OCCOCCOCCn4cc(CN(CCOc5ccc6c(=O)cc(-c7ccccc7)oc6c5)Cc5ccccc5)nn4)cc3)cc(=O)c2c1" came out at >726.2

DOX resistance of 2008/MRP1 Therapeutic index recorded for this molecule, "Cc1ccc2oc(-c3ccc(OCCOCCOCCn4cc(CN(Cc5ccccc5)Cc5cn(CCOCCOCCOc6ccc(-c7cc(=O)c8cc(C)ccc8o7)cc6)nn5)nn4)cc3)cc(=O)c2c1" , is >210.5
